The reported measurements were obtained from patent US20090239845A1.

biological target: human prostanoid EP1 receptor (Homo sapiens); construct: expressed in transfected cells; host or cells: CHO-K1 (membrane fraction); experiment: Binding assay for the human prostanoid EP1 receptor (competition with [3H]-PGE2); details: negative logarithm10 of the IC50; competition with [3H]-PGE2, CHO-K1 cell membranes; averages of a number of experiments; read-out: pIC50 value (converted)
Where a name gives a salt, the structure may show the parent alone.
// reported IC50 for each item listed

Answered examples (8):
Cc1cc(C(=O)Nc2ccc(CN3CCCC3)cc2)nn1Cc1cc(Cl)ccc1OCC(C)C [Example 396, hydrochloride] | ≤ 10 nM
CCNCc1ccc(NC(=O)c2cc(C)n(Cc3cc(Cl)ccc3OCC(C)C)n2)cc1 [Example 393, hydrochloride] | ≤ 10 nM
CCN1CCN(Cc2ccc3[nH]c(-c4cnn(Cc5cc(Cl)ccc5OCC(C)C)c4C)nc3c2)CC1 [Example 382, trihydrochloride] | ≤ 10 nM
Cc1cc(C(=O)Nc2c(F)cccc2F)nn1Cc1cc(Br)ccc1OCc1ccc(F)cc1F [Example 319] | ≤ 10 nM
Cc1cc(NC(=O)Cc2ccccn2)nn1Cc1cc(Cl)ccc1OCc1ccc(Cl)cc1F [Example 118] | ≤ 10 nM
Cc1cc(NC(=O)CC(C)(C)C)nn1Cc1cc(Cl)ccc1OCc1ccc(F)cc1F [Example 132] | ≤ 10 nM
Cc1cc(NC(=O)CC(C)(C)C)nn1Cc1cc(Cl)ccc1OCc1ccc(Cl)cc1F [Example 136] | ≤ 10 nM
Cc1cc(C(=O)NS(=O)(=O)c2ccccc2)nn1Cc1cc(Cl)ccc1OCc1ccccc1 [Example 355] | ≤ 10 nM

Inquiry: Tell me the measured IC50 of Cc1cc(C(=O)Nc2ccc(CNC(C)C)cc2)nn1Cc1cc(Cl)ccc1OCC(C)C [Example 395, hydrochloride] , please.
Reply text: ≤ 10 nM

Inquiry: Would you kindly share the measured IC50 for Cc1c(-c2nc3cc(CN4CCN(C)CC4)ccc3[nH]2)cnn1Cc1cc(Cl)ccc1OCC(C)C [Example 381, trihydrochloride] ?
Reply text: ≤ 10 nM

Inquiry: Could you share which IC50 value was measured for Cc1cc(NC(=O)OC(C)C)nn1Cc1cc(Br)ccc1OCc1ccc(Cl)cc1Cl [Example 9] ?
Reply text: ≤ 10 nM

Inquiry: Given the compound Cc1cc(C(=O)Nc2ccc(CN(C)C)cc2)nn1Cc1cc(Cl)ccc1OCc1ccccc1 [Example 346, hydrochloride] , what is its reported IC50?
Reply text: ≤ 10 nM

Inquiry: Return reported IC50; argument: Cc1cc(NC(=O)CC(C)C)nn1Cc1cc(Cl)ccc1OCC(C)C [Example 76]
Reply text: ≤ 10 nM

----------
target: human prostanoid EP1 receptor (Homo sapiens, UniProt P34995); construct: expressed in transfected cells; host or cells: CHO-K1 (membrane fraction); assay: Binding assay for the human prostanoid EP1 receptor (competition with [3H]-PGE2); conditions: negative logarithm10 of the IC50; competition with [3H]-PGE2, CHO-K1 cell membranes; averages of a number of experiments; read-out: pIC50 value (converted)
Sequence (P34995 whole entry): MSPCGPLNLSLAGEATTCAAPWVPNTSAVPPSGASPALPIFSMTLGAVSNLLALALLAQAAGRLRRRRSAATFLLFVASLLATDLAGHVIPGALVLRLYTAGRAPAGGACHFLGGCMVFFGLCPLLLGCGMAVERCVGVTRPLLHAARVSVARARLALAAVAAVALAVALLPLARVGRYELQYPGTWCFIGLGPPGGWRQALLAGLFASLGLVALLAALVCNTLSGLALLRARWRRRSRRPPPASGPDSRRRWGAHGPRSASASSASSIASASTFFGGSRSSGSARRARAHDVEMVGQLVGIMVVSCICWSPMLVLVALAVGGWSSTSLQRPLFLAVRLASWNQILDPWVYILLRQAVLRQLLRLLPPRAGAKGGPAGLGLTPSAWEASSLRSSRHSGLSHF
Where a name gives a salt, the structure may show the parent alone.
measured_parameter: IC50

Cc1cc(NC(=O)C2CCCCC2)nn1Cc1cc(Cl)ccc1OCc1ccccc1 | ≤ 10 nM
Cc1cc(NC(=O)OC(C)C)nn1Cc1cc(Br)ccc1OCc1ccc(F)cc1F | ≤ 10 nM

As a next step, examine the compound that follows.
Inquiry: Tell me the measured IC50 of CNCc1ccc(NC(=O)c2cc(C)n(Cc3cc(Cl)ccc3OCC(C)C)n2)cc1 [Example 392, hydrochloride] , please.
Reply text: ≤ 10 nM
